Where these numbers come from: patent US9266922B2

target: HLA A*0201 on CEM.T2 cell line (Homo sapiens, UniProt P04439, D140Y/D185E/D98H/E176V/E277Q/G131W/G231S/I119V/I121R/I166T/I218V/L300P/L318F/N151K/N90K/P208A/P217A/Q86G/Q94H/R138H/R169H/T345S); construct: This cell line expresses HLA A*0201 but is deficient for TAP transporter; endogenous in cells; host or cells: CEM.T2 (T2) cell line; experiment: Cellular binding assay, HLA stabilization on CEM.T2 cells; format: cell-based; details: 100 μM peptide, 37° C. for 4 h, FACS anti HLA-A2; relative to HBV positive control peptide
Residues, ends and D or L forms follow the SMILES beside them.
Experimental endpoint: CEM.T2 % Binding (%)
Answer with a number only, understood to be in %.

The examples below pair each entry with its known result.
Compound | CEM.T2 % Binding, %
CC(C)C[C@H](N)C(=O)N[C@H](C(=O)N[C@@H](CO)C(=O)N[C@@H](C)C(=O)N[C@@H](CO)C(=O)N[C@H](C(=O)N[C@H](C(=O)N[C@H](C(=O)N[C@H](C(=O)O)C(C)C)C(C)C)C(C)C)C(C)C)C(C)C [Peptide 345] (H-LVSASVVVV-OH; N-terminus and C-terminus assumed) | 11
CC[C@H](C)[C@H](NC(=O)[C@@H](N)C(C)C)C(=O)N[C@@H](C)C(=O)N[C@@H](C)C(=O)N[C@@H](CC(C)C)C(=O)N[C@@H](CC(C)C)C(=O)N[C@@H](Cc1ccccc1)C(=O)N[C@@H](CS)C(=O)N[C@@H](CC(C)C)C(=O)O [Peptide 355] (H-VIAALLFCL-OH; N-terminus and C-terminus assumed) | 18
CC[C@H](C)[C@H](NC(=O)[C@@H](N)Cc1c[nH]cn1)C(=O)N[C@@H](CC(C)C)C(=O)N[C@@H](Cc1c[nH]cn1)C(=O)N[C@H](C(=O)N[C@@H](CO)C(=O)N[C@@H](Cc1ccccc1)C(=O)N[C@@H](CC(C)C)C(=O)N[C@@H](C)C(=O)O)C(C)C [Peptide 238] (H-HILHVSFLA-OH; N-terminus and C-terminus assumed) | 37
CC(C)C[C@H](NC(=O)[C@H](C)NC(=O)[C@H](C)N)C(=O)N[C@@H](CC(C)C)C(=O)N[C@@H](Cc1ccccc1)C(=O)N[C@@H](CS)C(=O)N[C@@H](CC(C)C)C(=O)N[C@@H](CC(C)C)C(=O)N[C@H](C(=O)O)C(C)C [Peptide 357] (H-AALLFCLLV-OH; N-terminus and C-terminus assumed) | 15
CC(C)[C@H](NC(=O)[C@@H](NC(=O)[C@@H](NC(=O)[C@@H](NC(=O)[C@@H](NC(=O)[C@H](CC(=O)O)NC(=O)[C@H](CO)NC(=O)[C@@H](NC(=O)CN)[C@@H](C)O)C(C)C)C(C)C)[C@@H](C)O)C(C)C)C(=O)O [Peptide 35] (H-GTSDVVTVV-OH; N-terminus and C-terminus assumed) | 60

Please turn your attention to the following entry.
Ask | For the compound CC(C)C[C@H](NC(=O)[C@H](C)N)C(=O)N[C@@H](CC(C)C)C(=O)N[C@@H](Cc1ccccc1)C(=O)N[C@@H](CS)C(=O)N[C@@H](CC(C)C)C(=O)N[C@@H](CC(C)C)C(=O)N[C@H](C(=O)N[C@H](C(=O)O)C(C)C)C(C)C [Peptide 358] (H-ALLFCLLVV-OH; N-terminus and C-terminus assumed) , what CEM.T2 % Binding is on record?
Reply | 26
